tested on: HPK1; settings: concentration: 1 μM,replicates: in singlicate; n = 1;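 also: KINOMEscan kinase panel screen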
The label yes (1) is reserved for %Inh strictly under 40%; no (0) covers values equal to or above it.

Consider the worked cases shown below.
COc1cc2nccc(Nc3ccc(Oc4ccccc4)cc3)c2cc1OC.Cl :: yes (1)
COC(=O)Nc1nc2cc(Oc3ccc(NC(=O)Nc4cc(C(F)(F)F)ccc4Cl)cc3)ccc2[nH]1.Cl :: no (0)
CN(c1ccc2c(c1)nc(NCc1ccc(F)cc1)n2C)c1ccnc(Nc2ccc(CS(C)(=O)=O)cc2)n1.Cl :: no (0)
CN1CCN(CCCNc2nccc(-c3c(-c4ccc(F)cc4)nn4cc(C(N)=O)ccc34)n2)CC1 :: yes (1)
CN(c1ccccc1CNc1nc(Nc2ccc3c(c2)CC(=O)N3)ncc1C(F)(F)F)S(C)(=O)=O :: no (0)

Find out if reported %Inh for Cc1ccc(CC(=O)N2CCc3cc(-c4cn(C)c5ncnc(N)c45)ccc32)cc1 is less than 40%
no (0)

# TODO verify %Inh < 40% strictly for this compound: COc1cccc(CNC(=O)NC2CCN(c3ccnc(Nc4cc(OC)c(OC)c(OC)c4)n3)C2)c1 (centres unmarked)
yes (1)

Is the reported %Inh for CC(=O)Nc1ccc(-c2cc3ncnc(SCC(=O)O)c3s2)cc1 strictly below 40%?
yes (1)

###

tested on: WNK4; conditions: concentration: 1 μM,replicates: in singlicate; n = 1
readout.type: %Inh (%)
Respond numerically; units are % and should not be typed.

COC(=O)c1cccc(NC(=O)NC2CCN(c3ccnc(Nc4cc(OC)c(OC)c(OC)c4)n3)C2)c1 (stereo not drawn) :: 39

// %Inh value for N#Cc1cccc(C(=O)NC2CCN(c3ccnc(Nc4ccc(F)cc4)n3)C2)c1 (stereo not drawn) : 76

Field %Inh (entry Nc1nccc(-c2ccc3c(N)n[nH]c3c2)n1 ) reads 0

Recorded %Inh (compound CC(C)c1nc(-c2cccc(NS(=O)(=O)c3ccccc3)c2)c(-c2ccnc(Nc3ccc4c(c3)CN(C)CC4)n2)s1 ): 0

Item: CC(C)S(=O)(=O)N1CCN(Cc2ccc3c(c2)nc(NC(=O)c2ccsc2)n3C[C@H](O)c2ccccc2)CC1 | %Inh: 0

GET /value?item= Cl.c1ccc(Oc2ccc(Nc3ccnc4cc(-c5ccc(CN6CCNCC6)o5)ccc34)cc2)nc1 &field=%Inh returns 0

###

test system: ERK2; construct: gene MAPK1; conditions: concentration: 1 μM,replicates: in singlicate; n = 1
Binary call on %Inh: met from 2% upward, not met beneath that.

Cc1n[nH]c2cc(Nc3ccnc(Nc4cccc(CN5CCOCC5)c4)n3)ccc12 [GW682569] :: not met

Is %Inh for CCn1c(-c2nonc2N)nc2cncc(CNC3CCNCC3)c21.Cl [SB-747651] at or above 2%?
not met

Is it the case that COc1cccc(CNC(=O)NC2CCN(c3ccnc(Nc4cc(OC)c(OC)c(OC)c4)n3)C2)c1 (stereo not drawn) [GSK1379765] has %Inh reaching or exceeding 2%?
not met

Check this molecule for %Inh at or above 2%: CNC(=O)c1ccccc1Nc1nc(Nc2cccc(CS(C)(=O)=O)c2)ncc1C.O=CO [GSK1520489]
met

###

test system: PRKCD; details: concentration: 1 μM,replicates: in singlicate; n = 1
readout.type: %Inh (%)
The figure you give is taken to be in %; do not add the unit.

Below are worked cases with known answers.
O=c1[nH]cc(-c2ccc(O)cc2)c2sc(-c3ccncc3)cc12 [GSK1033723] :: 0
O=C(NOCC1CC1)c1cc(Br)c(F)c(F)c1Nc1ccc(I)cc1Cl :: 0
NC(=O)c1ccc(-c2cc3ncnc(SCC(=O)O)c3s2)cc1 :: 0

Here is another compound to look at.
Entry CC(C)c1nc(-c2cccc(NS(=O)(=O)c3ccccc3)c2)c(-c2ccnc(Nc3ccc4c(c3)CN(C)CC4)n2)s1 [GSK1649598] : %Inh on PRKCD = 0
